- assay.system: human cathepsin S (Homo sapiens, UniProt P25774)
- Construct: made in house
- Sequence (P25774 115-331): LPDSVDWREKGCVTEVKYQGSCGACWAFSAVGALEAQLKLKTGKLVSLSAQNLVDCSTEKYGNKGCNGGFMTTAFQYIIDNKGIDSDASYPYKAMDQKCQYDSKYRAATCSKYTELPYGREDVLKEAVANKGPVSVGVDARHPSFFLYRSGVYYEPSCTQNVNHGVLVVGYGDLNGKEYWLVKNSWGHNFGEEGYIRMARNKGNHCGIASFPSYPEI
- experiment.description: Cathepsin S Ki determination (fluorescent substrate boc-Val-Leu-Lys-AMC)
- Assay type: biochemical
- protocol.conditions: baculovirus-expressed human cathepsin S, pH 6.5
attribute.measured: pKi
One number for each entry, as −log10 of the molar value.

compound="CCC1OCC(=O)C1NC(=O)C1(NC(=O)c2ccc(-c3csc(N4CCN(C)CC4)n3)cc2)CCCCC1 (centres unmarked) [Example 2]" attribute_measured=pKi data_value=3.11

Please turn your attention to the following entry.
Fill in: human cathepsin S (Homo sapiens, UniProt P25774) pKi for CCC1OCC(=O)C1NC(=O)C(CC(C)C)NC(=O)c1ccc(-c2csc(N3CCN(C)CC3)n2)cc1 (centres unmarked) [Example 3] = 5.74

====

- experiment.description: Permeability, transport through Caco-2 cell monolayers
- protocol.conditions: human
attribute.measured: Papp at 10 µM

Entry CC(C)C[C@H](NC(=O)c1ccc(N2CCN(C)CC2)cc1)C(=O)N[C@H]1C(=O)CO[C@@H]1C [Prior art, reference compound] ; Papp at 10 µM = 1 ×10⁻⁶ cm/s
